Numbers sourced from the supplement of paper PMC9170038.

system: MS2 coat protein; experiment: apparent KD of MS2 coat protein; designed switch direction (-1 OFF switch, 1 ON switch): -1; higher = weaker reporter binding; details: input ligand: none
Given measured apparent KD of MS2 coat protein, output True if it is greater than or equal to 0.08 µM and False if not.

[
  {
    "SEQUENCE": "GCCUCACUUGAGGAUCACCCAAGUCAGGAUAUUCACUGAACUACGUAGCAGUUCGGCCGAAGAAGGGAUUCGGG [Azaraqu] (Eterna round: R97, puzzle: Exclusion 1)",
    "ASSIGNED_LABEL": "True"
  },
  {
    "SEQUENCE": "CUCUAGUCAGGAUAUCACGUUUACCGUGCACUCACAAAGCCUGAGAAGGGACUUGAGGAUCACCCAAGUGGGAA [Reedbequ] (Eterna round: R97, puzzle: Exclusion 4)",
    "ASSIGNED_LABEL": "True"
  },
  {
    "SEQUENCE": "ACUUAUUGAGGAUAUACAGAUUAUUACAUGAGGAUCACCCAUGUUCUUCAAUGUAUAUAUGUAGAAGGCAGAGGAU [Mat - Exclusion 5 - JL Mod - D13] (Eterna round: R97, puzzle: Exclusion 5)",
    "ASSIGNED_LABEL": "False"
  },
  {
    "SEQUENCE": "UGGUGUGCGAAGGAUAUGUAGGCUAUCAUGUCAAUAGAAGGUUGCACAUGAGGAUCACCCAUGUAAGCCACUUA [Eternabot (L1) Solution 17] (Eterna round: R97, puzzle: Exclusion 6)",
    "ASSIGNED_LABEL": "True"
  },
  {
    "SEQUENCE": "AAAUAAACAAGCAACUCGAACAUGAGGAUCACCCAUGUAAAGGGUGAAUCGUCCACCCAAAAAAAAAAUAAAAAAAA [Mat - Sensor v2 - Eli mod - 132] (Eterna round: R96, puzzle: Sensor v2, turn-off variant)",
    "ASSIGNED_LABEL": "False"
  }
]

* * *

test system: MS2 coat protein; assay: apparent KD of MS2 coat protein; designed switch direction (-1 OFF switch, 1 ON switch): 1; higher = weaker reporter binding; conditions: Eterna round: R95; input ligand: microRNA oligo, concentration not stated
MEASURED_QUANTITY: apparent KD of MS2 coat protein (nM)

[
  {
    "SEQUENCE": "AGUCCAGCGAAAGCUGGACAAAAGCAUGUACAUGAGGAUCACCCAUGUUCAUGUACAAGCUUUUUGCUCGUUUUAAA [JL mod - D95 - 15] (puzzle: Sensor for hsa-mir-208a)",
    "TARGET_SYSTEM": "MS2 coat protein",
    "QUANTITATIVE_RESULT": 13.5
  },
  {
    "SEQUENCE": "AUAAGUUCGAUGCUCGUCUUUCCGUACAAACAUGAGGAUCACCCAUGUGAUCGGGAAGUAGCCCGAUCAGUAUGGCC [Leceen] (puzzle: Sensor for hsa-mir-208a)",
    "TARGET_SYSTEM": "MS2 coat protein",
    "QUANTITATIVE_RESULT": 16.3
  },
  {
    "SEQUENCE": "AAAGUACAUGAGGAUCACCCAUGUCCCAAUGAAUAAGGAUAUACGAAAAUAAAAUAAAAUGUAGAAGGUAUAAUAG [Same State 1 #1] (puzzle: Same State 1)",
    "TARGET_SYSTEM": "MS2 coat protein",
    "QUANTITATIVE_RESULT": 30.5
  },
  {
    "SEQUENCE": "UUAAAACAUGAGGAUCACCCAUGUAAUAUAAUGGGAGGAUAUCUGAUUUAAUUAAAUUUAAGAGAAGGCCUAAAUU [Mat - Same State 1 - Mod of Eli - D55] (puzzle: Same State 1)",
    "TARGET_SYSTEM": "MS2 coat protein",
    "QUANTITATIVE_RESULT": 128
  },
  {
    "SEQUENCE": "AAACCACAUGAGGAUCACCCAUGUGAUAAAAGCAUAGGAUAUCUGGAUGUGAGAGGCGGCAGAGAAGGAUGCACGC [Laoror] (puzzle: Same State 1)",
    "TARGET_SYSTEM": "MS2 coat protein",
    "QUANTITATIVE_RESULT": 58.2
  },
  {
    "SEQUENCE": "AGAGAACAUGAGGAUCACCCAUGUGGGAGAGGCAUAGGAUAUAGAGGAGAGAGCGAGGAACUAGAAGGAUGAUGGA [JR_SS1_Sub080] (puzzle: Same State 1)",
    "TARGET_SYSTEM": "MS2 coat protein",
    "QUANTITATIVE_RESULT": 70.7
  },
  {
    "SEQUENCE": "GUGGUGUAGAUACAGGAUAUGUUGCUCGUAACAUGAGGAUCACCCAUGUAUCUAUGAGAAUAAAUGCAGAAGGGUGCACACCACG [Mat - Same State 2 - Mod of UCT - D73] (puzzle: Same State 2)",
    "TARGET_SYSTEM": "MS2 coat protein",
    "QUANTITATIVE_RESULT": 352
  },
  {
    "SEQUENCE": "AGUCCAGCCUAAGCUGGACAAAAGCAUGUACAUGAGGAUCACCCAUGUCAUGUACAAGCUUUUUGCUCGUCUUAAAA [Mat - hsa-mir-208a - Mod of JL - D4] (puzzle: Sensor for hsa-mir-208a)",
    "TARGET_SYSTEM": "MS2 coat protein",
    "QUANTITATIVE_RESULT": 16.1
  },
  {
    "SEQUENCE": "GCAUCACAUGAGGAUCACCCAUGUCUUCGGAGUCGAGGAUAUGGUCACUGUAAACAGUGGCCAGAAGGCGAGAUGC [SS1 - Son of Teenbexe] (puzzle: Same State 1)",
    "TARGET_SYSTEM": "MS2 coat protein",
    "QUANTITATIVE_RESULT": 41.4
  },
  {
    "SEQUENCE": "AGGCUCAGCAUGCAGGAUAUAGUCGCUGCGACAUGAGGAUCACCCAUGUGGUGUGAAAGAAAGCGCUAGAAGGGUAAAGUGAGUG [Beeran] (puzzle: Same State 2)",
    "TARGET_SYSTEM": "MS2 coat protein",
    "QUANTITATIVE_RESULT": 467
  }
]

* * *

system: MS2 coat protein; test: apparent KD of MS2 coat protein; designed switch direction (-1 OFF switch, 1 ON switch): -1; higher = weaker reporter binding; settings: input ligand: FMN 200 uM

[
  {
    "SEQUENCE": "GGAUGUCUAAAGGAUAUGCUGGAUUAAUAUCUGGCAGAAGGUUGGACAUGAGGAUCACCCAUGUAAAUUCUGCC [Omei Ex6 A11] (Eterna round: R97, puzzle: Exclusion 6)",
    "TARGET_SYSTEM": "MS2 coat protein",
    "apparent KD of MS2 coat protein": "24.6 nM"
  },
  {
    "SEQUENCE": "AGAGACCGAGGAUAUCCCAGAACUCACAUGAGGAUCACCCAUGUGUAGAUUGGGUGUCACGGAGAAGGCGGAUCGC [EX5 C.21] (Eterna round: R97, puzzle: Exclusion 5)",
    "TARGET_SYSTEM": "MS2 coat protein",
    "apparent KD of MS2 coat protein": "14 nM"
  },
  {
    "SEQUENCE": "ACUGGUCGAGGAUAUACAUGAGGAUCACCCAUGUGGUCACGUGACUUCGGUCACGAAUGUAGAAGGCGACCAGU [E3/3-A5] (Eterna round: R97, puzzle: Exclusion 3)",
    "TARGET_SYSTEM": "MS2 coat protein",
    "apparent KD of MS2 coat protein": "61.4 nM"
  },
  {
    "SEQUENCE": "UUCGUGCAGCAAAGCUGUACGCGUACAUGAGGAUCACCCAUGUAGGAUAUGGUAGGCAAAGCUUACUAGAAGGAUAUGGUGAGC [Mat - Exclusion NG 3 - Mod of JL - D80] (Eterna round: R96, puzzle: Exclusion NG 3)",
    "TARGET_SYSTEM": "MS2 coat protein",
    "apparent KD of MS2 coat protein": "51.9 nM"
  },
  {
    "SEQUENCE": "CUUUUUGUUGAGGAUAUGCACCAGCUCACUGACGCAGAAGGCGACACAUGAGGAUCACCCAUGUCAGUUCGCGU [salish99_ex6_r004_431] (Eterna round: R97, puzzle: Exclusion 6)",
    "TARGET_SYSTEM": "MS2 coat protein",
    "apparent KD of MS2 coat protein": "21.5 nM"
  },
  {
    "SEQUENCE": "UUGUUAUGUGUAGGAUAUGCGUGUUAUUAUUAUGCAGAAGGACAUGAGGAUCACCCAUGUGUAUUGUUAUUAUAUAUUAUAUAU [Title] (Eterna round: R96, puzzle: Exclusion NG 1)",
    "TARGET_SYSTEM": "MS2 coat protein",
    "apparent KD of MS2 coat protein": "21 nM"
  },
  {
    "SEQUENCE": "UUUUUACAUGAGGAUCACCCAUGUCAGGAUAUGCUUAUAUUUUAUUAUUUUAUUUUUUGCAGAAGGGACUAUUA [My solution] (Eterna round: R96, puzzle: Exclusion 1)",
    "TARGET_SYSTEM": "MS2 coat protein",
    "apparent KD of MS2 coat protein": "130 nM"
  },
  {
    "SEQUENCE": "AAGUGCGAAGGAUAUACAUGAGGAUCACCCAUGUUCACCAAAACACAGGUCUCAGACUGUAGAAGGUCGCACAG [Eternabot (Original) Solution 45] (Eterna round: R97, puzzle: Exclusion 3)",
    "TARGET_SYSTEM": "MS2 coat protein",
    "apparent KD of MS2 coat protein": "605 nM"
  },
  {
    "SEQUENCE": "AGCGUGGAGACAGGAUAUGAGAAUAGAUAGAACUCAGAAGGGUCACAUGAGGAUCACCCAUGUAAAGUCUUGAGGAUGAGUGAU [Prohibition 4 - Jieux - Exclusion NG 1] (Eterna round: R96, puzzle: Exclusion NG 1)",
    "TARGET_SYSTEM": "MS2 coat protein",
    "apparent KD of MS2 coat protein": "192 nM"
  }
]
